- measurement-target: Proteinase-activated receptor 1 (Homo sapiens)
- Sequence (P25116 whole entry): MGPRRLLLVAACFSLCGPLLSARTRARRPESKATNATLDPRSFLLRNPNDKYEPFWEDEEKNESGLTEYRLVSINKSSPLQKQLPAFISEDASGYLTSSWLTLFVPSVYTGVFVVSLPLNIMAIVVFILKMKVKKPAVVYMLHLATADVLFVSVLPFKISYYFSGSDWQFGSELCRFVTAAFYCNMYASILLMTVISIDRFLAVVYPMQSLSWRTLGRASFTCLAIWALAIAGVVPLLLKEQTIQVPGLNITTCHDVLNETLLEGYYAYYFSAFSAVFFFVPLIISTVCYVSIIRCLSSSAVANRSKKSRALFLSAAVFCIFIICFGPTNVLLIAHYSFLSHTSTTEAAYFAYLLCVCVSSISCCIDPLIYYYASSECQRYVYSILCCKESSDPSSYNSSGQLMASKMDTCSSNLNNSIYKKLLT
- assay-overview: Displacement of [3H]haTRAP from PAR-1 receptor in human platelet membranes after 1 hr by scintillation counting analysis
pKi: −log10 of the molar value.
measured-metric: pKi

C[C@H]1OC(=O)[C@@H]2C[C@@H]3C[C@]4(CC[C@H]3[C@H](/C=C/c3ccc(-c5cccc(C#N)c5)cn3)[C@H]12)COC(=O)N4 ... 6.57
C[C@H]1OC(=O)[C@@H]2C[C@@H]3C[C@]4(CC[C@H]3[C@H](/C=C/c3ccc(-c5cccc(C(F)(F)F)c5)cn3)[C@H]12)CNC(=O)O4 ... 6.41
C[C@H]1OC(=O)[C@@H]2C[C@@H]3C[C@]4(CC[C@H]3[C@H](/C=C/c3ccc(-c5cccc(C(F)(F)F)c5)cn3)[C@H]12)COC(=O)N4 ... 7.68
C[C@H]1OC(=O)[C@@H]2C[C@@H]3C[C@]4(CC[C@H]3[C@H](/C=C/c3ccc(-c5ccccc5C#N)cn3)[C@H]12)COC(=O)N4 ... 8.29
C[C@H]1OC(=O)[C@@H]2C[C@@H]3C[C@]4(CC[C@H]3[C@H](/C=C/c3ccc(-c5cccc(F)c5)cn3)[C@H]12)COC(=O)N4 ... 7.81
C[C@H]1OC(=O)[C@@H]2C[C@@H]3C[C@@]4(CC[C@H]3[C@H](/C=C/c3ccc(-c5ccccc5C#N)cn3)[C@H]12)COC(=O)N4 ... 8.05
C[C@H]1OC(=O)[C@@H]2C[C@@H]3C[C@@]4(CC[C@H]3[C@H](/C=C/c3ccc(-c5cccc(C#N)c5)cn3)[C@H]12)COC(=O)N4 ... 7.37
C[C@H]1OC(=O)[C@@H]2C[C@@H]3C[C@@]4(CC[C@H]3[C@H](/C=C/c3ccc(-c5cccc(F)c5)cn3)[C@H]12)COC(=O)N4 ... 7.55
C[C@H]1OC(=O)[C@@H]2C[C@@H]3C[C@@]4(CC[C@H]3[C@H](/C=C/c3ccc(-c5ccccc5F)cn3)[C@H]12)COC(=O)N4 ... 7.60
C[C@H]1OC(=O)[C@@H]2C[C@@H]3C[C@@]4(CC[C@H]3[C@H](/C=C/c3ccc(-c5ccccn5)cn3)[C@H]12)COC(=O)N4 ... 6.63
C[C@H]1OC(=O)[C@@H]2C[C@@H]3C[C@@]4(CC[C@H]3[C@H](/C=C/c3ccc(-c5cccc(C(F)(F)F)c5)cn3)[C@H]12)CNC(=O)O4 ... 7.50
C[C@H]1OC(=O)[C@@H]2C[C@@H]3C[C@@]4(CC[C@H]3[C@H](/C=C/c3ccc(-c5cccc(C(F)(F)F)c5)cn3)[C@H]12)COC(=O)N4 ... 7.58
